Test system: PBMC from healthy, seropositive donors
Assay type: cell-based, human
Property: % Responders; scope: individual sequences
Respond with the bare value in %.

Answered examples (3):
1. TQLLARLQWLDAAAKLERLL [BPSS1599_P35] ... 93.8
2. AVNDNWVNGTGEWVWMNGTN [BPSL2522_P4] ... 91.4
3. QPKRLDDLLPRRGGRPRTER [BPSS1599_P17] ... 83.3

Please report the recorded % Responders for AHLVLRSLIDELQSTLRVRL [BPSS0530_P21] .
93.0

Please report the recorded % Responders for AHNQTLSQNRAQSVVNALAQ [BPSL0999_P16] .
85.1

Please report the recorded % Responders for ETPVLPLRFEDRGDQVHICI [BPSS0530_P33] .
86.0

Please report the recorded % Responders for AGAILGAVVTGVALVAAAFV [BPSS1532_P44] .
100.0

Please report the recorded % Responders for SLRRAQAVKSYLVSKGVPAN [BPSL2522_P16] .
82.9

###

Test system: PBMC from healthy, seropositive donors
Assay type: cell-based, human
Property: Median SFC/10^6 PBMCs (IFN-g); scope: individual sequences
// no unit string in output, number only

Please report the recorded Median SFC/10^6 PBMCs (IFN-g) for GKGAAIGAGVGALVGGVTGY [BPSL0999_P6] .
357

Please report the recorded Median SFC/10^6 PBMCs (IFN-g) for GPEMAFGDVELASRYRAVST [BPSS0530_P12] .
308

Please report the recorded Median SFC/10^6 PBMCs (IFN-g) for GALGGLLAFRSQTLDPAQAQ [BPSL0280_P29] .
463

Please report the recorded Median SFC/10^6 PBMCs (IFN-g) for GGERMSDEHASVLAQEAPAR [BPSS1531_P30] .
213

Please report the recorded Median SFC/10^6 PBMCs (IFN-g) for KDFTFVCPTEIVEFAKLAKQ [BPSL2096_P6] .
333

Please report the recorded Median SFC/10^6 PBMCs (IFN-g) for TPEIRQDAEFGRQVYEATLC [BPSS1525_P11] .
184

Please report the recorded Median SFC/10^6 PBMCs (IFN-g) for HQASLRLGQTSNHGWGFTLL [BPSS0530_P4] .
239

Please report the recorded Median SFC/10^6 PBMCs (IFN-g) for PEQGPRAPLANLAQQAAALP [BPSS1599_P37] .
147

Please report the recorded Median SFC/10^6 PBMCs (IFN-g) for RQTAMSNAQTLASQLVAAGQ [BPSL0280_P14] .
565

###

system.tested: HLA-DRB1*11:01 (Homo sapiens, UniProt P01903+P01911, A100R/A169T/A87E/I96F/K41T/L162R/M171V/P40S/Q125H/Q178H/Q39Y/Q99D/R42S/S66Y/T262R/V115G/W38E)
Construct: Purified HLA-DR heterodimers derived from the relevant EBV B-lymphoblastoid cell lines; endogenous in cells
Sequence (P01903 26-254, other chains not shown): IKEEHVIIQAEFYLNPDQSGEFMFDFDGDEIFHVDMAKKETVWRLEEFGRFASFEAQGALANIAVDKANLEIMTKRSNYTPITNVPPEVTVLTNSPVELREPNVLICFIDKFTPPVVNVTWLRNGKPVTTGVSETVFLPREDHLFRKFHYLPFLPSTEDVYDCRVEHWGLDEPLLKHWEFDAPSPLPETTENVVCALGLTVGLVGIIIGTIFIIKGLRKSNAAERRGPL
Type: binding
Design: reference not given here
details: 24–72 h at 37°C
experimental.readout: HLA binding, relative HLA binding affinity
// no unit string in output, number only

1. AAKIQGMNVEVVVATGYTDR [BPSL2522_P13] ... 23
2. PAGKQKLDELAAKIQGMNVE [BPSL2522_P12] ... 77
3. KDFTFVCPTEIVEFAKLAKQ [BPSL2096_P6] ... 43

Please report the recorded HLA binding, relative HLA binding affinity for RGVAANRLSAQGMGASNPIA [BPSL0999_P18] .
72

Please report the recorded HLA binding, relative HLA binding affinity for NQNPQITASVVGYTDSTGSA [BPSL0999_P14] .
189
